# Tested on: MV4-11 xenografts
# assay-overview: In vivo efficacy in MV4-11 subcutaneous xenograft model
# experimental-parameters: d0, before grouping for administration (baseline)
Each item that follows carries a reported d0 Tumor Volume (mm^3).
quantity: d0 Tumor Volume (mm^3)

compound	quantity	result-unit	measured
CC(=O)N1CCC(Nc2cc(C(=O)NC[C@H](O)CN3CCc4ccccc4C3)ncn2)CC1 [GSK3326595, reference compound]	d0 Tumor Volume (mm^3)	mm^3	165.2
CON=C(C)C(=O)N1CCC2(CC1)CC(Nc1cc(C(=O)NC[C@H](O)CN3CCc4ccccc4C3)ncn1)C2	d0 Tumor Volume (mm^3)	mm^3	165.4
CON=C(C)C(=O)N1CC2(CC(Nc3cc(C(=O)NC[C@H](O)CN4CCc5ccccc5C4)ncn3)C2)C1	d0 Tumor Volume (mm^3)	mm^3	164.8
CON=C(C)C(=O)N1CCC(Nc2cc(C(=O)NC[C@H](O)CN3CCc4ccccc4C3)ncn2)CC1	d0 Tumor Volume (mm^3)	mm^3	165.3
CON=C(C(=O)NC1CC2(C1)CC(Nc1cc(C(=O)NC[C@H](O)CN3CCc4ccccc4C3)ncn1)C2)C1CC1 (some centres unmarked)	d0 Tumor Volume (mm^3)	mm^3	165.6
